ASSAY METRIC: melting point

Bench note: what melting point did Cc1c(C(F)(F)F)cnn(-c2ccc(Cl)c(C=C(Cl)C(=O)OCCC#N)c2)c1=O [Ia.16] show?
78 to 79 °C

Another compound to check: C=CCOC(=O)C(Cl)=Cc1cc(-n2ncc(C(F)(F)F)c(C)c2=O)ccc1Cl [Ia.41]
62 to 63 °C

Another compound to check: C#CCOC(=O)C(Cl)=Cc1cc(-n2ncc(C(F)(F)F)c(C)c2=O)ccc1Cl [Ia.42]
81 to 82 °C

Another compound to check: COCCOC(=O)C(Cl)=Cc1cc(-n2ncc(C(F)(F)F)c(C)c2=O)ccc1Cl [Ia.12]
60 to 62 °C

FYI, the data here is from patent US20030130123A1.
